Assay notes: in vivo
Condition context: Alderley Park Han Wistar, rat, plasma, iv, 2 mg/kg
Property measured: clearance

State, in one line, measured clearance of "COc1cc(N2CCN(C(=O)[C@@H]3CCCC[C@H]3C(=O)NC3(C#N)CC3)[C@H](C)C2)ccc1C1CC1" 39 mL/min/kg

State, in one line, measured clearance of "CS(=O)(=O)c1ccc(N2CCN(C(=O)[C@@H]3CCCC[C@H]3C(=O)NC3(C#N)CC3)CC2)cc1" 22 mL/min/kg

State, in one line, measured clearance of "COc1ccc(N2CCN(C(=O)[C@@H]3CCCC[C@H]3C(=O)NC3(C#N)CC3)[C@H](C)C2)nc1OC" 15 mL/min/kg

State, in one line, measured clearance of "Cc1nn(C)c2cc(N3CCN(C(=O)[C@@H]4CCCC[C@H]4C(=O)NC4(C#N)CC4)[C@H](C)C3)ccc12" 19 mL/min/kg
